- Test system: POLγA:R309C (Homo sapiens, UniProt P54098, R309C)
- Sequence (P54098 whole entry R309C): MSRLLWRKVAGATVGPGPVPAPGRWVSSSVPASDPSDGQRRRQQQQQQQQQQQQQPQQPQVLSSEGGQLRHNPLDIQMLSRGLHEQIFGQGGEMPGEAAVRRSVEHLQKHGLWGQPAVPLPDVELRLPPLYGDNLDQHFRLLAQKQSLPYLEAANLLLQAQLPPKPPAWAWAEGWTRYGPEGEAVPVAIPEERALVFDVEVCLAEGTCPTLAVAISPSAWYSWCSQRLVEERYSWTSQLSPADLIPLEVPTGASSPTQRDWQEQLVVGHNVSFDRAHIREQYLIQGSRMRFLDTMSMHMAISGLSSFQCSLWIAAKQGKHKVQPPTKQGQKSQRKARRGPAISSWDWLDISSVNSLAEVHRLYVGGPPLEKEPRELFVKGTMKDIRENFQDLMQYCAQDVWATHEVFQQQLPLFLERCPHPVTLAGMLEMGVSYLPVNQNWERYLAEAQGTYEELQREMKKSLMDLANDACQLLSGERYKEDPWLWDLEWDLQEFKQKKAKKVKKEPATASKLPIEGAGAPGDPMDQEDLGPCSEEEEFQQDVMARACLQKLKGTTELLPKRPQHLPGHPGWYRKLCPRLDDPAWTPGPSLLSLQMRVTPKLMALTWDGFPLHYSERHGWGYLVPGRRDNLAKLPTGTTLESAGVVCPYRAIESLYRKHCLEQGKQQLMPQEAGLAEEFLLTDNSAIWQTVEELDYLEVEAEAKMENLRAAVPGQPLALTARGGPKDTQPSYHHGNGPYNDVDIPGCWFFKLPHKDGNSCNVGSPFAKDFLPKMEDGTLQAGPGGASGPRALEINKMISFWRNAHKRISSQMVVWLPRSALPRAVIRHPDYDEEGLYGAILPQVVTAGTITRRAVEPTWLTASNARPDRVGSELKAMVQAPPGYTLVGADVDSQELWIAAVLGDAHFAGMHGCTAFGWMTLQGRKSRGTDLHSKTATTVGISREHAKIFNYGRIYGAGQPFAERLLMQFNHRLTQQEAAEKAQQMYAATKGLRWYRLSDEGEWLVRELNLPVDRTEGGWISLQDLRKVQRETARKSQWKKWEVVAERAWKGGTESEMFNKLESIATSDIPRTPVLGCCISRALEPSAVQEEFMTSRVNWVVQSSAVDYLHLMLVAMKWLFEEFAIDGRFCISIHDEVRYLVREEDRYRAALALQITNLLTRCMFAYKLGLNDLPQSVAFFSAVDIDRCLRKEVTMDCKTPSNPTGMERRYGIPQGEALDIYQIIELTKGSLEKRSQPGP
- Sequence (Q9UHN1 whole entry partner): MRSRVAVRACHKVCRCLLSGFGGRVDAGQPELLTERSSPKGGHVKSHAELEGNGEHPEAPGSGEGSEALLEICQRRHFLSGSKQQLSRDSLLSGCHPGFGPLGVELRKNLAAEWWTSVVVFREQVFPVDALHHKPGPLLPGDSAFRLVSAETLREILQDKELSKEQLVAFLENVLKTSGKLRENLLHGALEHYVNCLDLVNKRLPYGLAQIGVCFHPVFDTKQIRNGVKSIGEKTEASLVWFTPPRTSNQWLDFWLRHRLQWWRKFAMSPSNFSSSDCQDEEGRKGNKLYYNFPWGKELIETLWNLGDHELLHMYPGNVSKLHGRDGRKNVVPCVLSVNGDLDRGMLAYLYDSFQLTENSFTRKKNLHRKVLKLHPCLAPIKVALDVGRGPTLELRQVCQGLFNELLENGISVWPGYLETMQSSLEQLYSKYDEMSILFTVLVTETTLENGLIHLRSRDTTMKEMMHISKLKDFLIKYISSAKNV
- Experiment notes: DNA polymerization assay, POLγA:R309C mutant
- Assay type: biochemical
- Condition context: stimulation of polymerase activity, primed M13mp18 ssDNA, 37° C. 2 hours
For each record, check the reported AC50: if it is below 10 µM write YES, else write NO.

# Molecule, Class label
records = [
    ("Cc1cc(S(=O)(=O)Nc2cccc(C(=O)NCc3ccccc3)c2)c(C)cc1Cl [Example 11]", "YES"),
    ("Cc1cc(S(=O)(=O)Nc2ccc3ccn(C)c3c2)c(C)cc1Cl [Example 72]", "NO"),
    ("Cc1cc(S(=O)(=O)Nc2cccc(C(=O)N3CCC[C@H]3C)c2)c(C)cc1Cl [Example 10]", "YES"),
    ("Cc1csc(-c2ccccc2NS(=O)(=O)c2cc(C)c(Cl)cc2C)n1 [Example 80]", "NO"),
    ("Cc1nc2ccc(NS(=O)(=O)c3cc(C)c(Cl)cc3C)cc2o1 [Example 70]", "NO"),
    ("Cc1ccc(C)c(S(=O)(=O)Nc2cccc(-c3nccs3)c2)c1 [Example 60]", "YES"),
    ("Cc1csc(-c2cccc(NS(=O)(=O)c3cc(C)c(Cl)cc3C)c2)n1 [Example 20]", "YES"),
    ("Cc1ccc(C)c(S(=O)(=O)Nc2cccc(C(=O)N3CCCC[C@@H]3C)c2)c1 [Example 6]", "NO"),
    ("Cc1nc2ccc(NS(=O)(=O)c3cc(C)c(Cl)cc3C)cc2s1 [Example 73]", "YES"),
    ("Cc1ccc(C)c(S(=O)(=O)Nc2cccc(C(=O)N3CCCC[C@H]3C)c2)c1 [Example 5]", "NO"),
    ("Cc1cc(S(=O)(=O)Nc2cccc(C(=O)N(C)C(C)CO)c2)c(C)cc1Cl (single isomer, unassigned) [Example 14]", "NO"),
]
